# Test system: SF-295 CNS
# test.description: NCI-60 one-dose screen, 48 h (100 = growth as untreated, 0 = no growth, -100 = all killed)
# experimental.parameters: 10 µM unless noted
# Protocol: Cells are grown in 96 well plates and exposed to the test compound for 48 hours. Compounds are tested at a single concentration, which is 10^-5 M for most compounds. The reported endpoint is percent growth (GI% or GIPRCNT), where numbers from 0 - 100% represent growth inhibition, and numbers from -100% - 0 represent cell death. For example, a value of 40 represents 60% growth inhibition. A value of 0 means no net growth occurred over the course of the experiment. […]
This is part of a sample that, as a whole, favours compounds with a hit. Of some 83,000 tested, about 20% had one in any assay.
Note that class boundaries on growth are category 1: < 30%; category 2: ≥ 30% and < 70%; category 3: ≥ 70%

Use these answered entries as a reference point.
* N#CC1=C(c2cccs2)Nc2c(c(-c3ccccc3)nn2-c2ccccc2)C12C(=O)Nc1ccc(Br)cc12 (stereo unspecified) | category 1
* C/C(=N\Nc1ccc(C(=O)O)cc1)c1cnn(-c2cc(=O)[nH]c3ccc(C)cc23)c1C | category 3
* Nc1ccc(-c2ccc3ncnc(N4CCc5cc(F)c(Cl)cc54)c3c2)cn1 | category 1
* O=C(COc1ccc(/C=C2/C(=O)Nc3ccc(Cl)cc32)cc1)Nc1ccc(Br)cc1 | category 1
* Oc1ccc(Cl)c(Nc2ncnc3c2cnn3CC(Cl)c2ccc(Br)cc2)c1 (stereo unspecified) | category 2

Ask | Classify this compound: COC(=O)c1c(C(=O)OC)c2ccc3c4ccccc4ccc3n2c1C(=O)OC
Reply | category 3

Ask | Classify this compound: CC[C@@]12CC(C(=O)OC)=C3Nc4cc5c(cc4[C@@]34CCN(C[C@H]3O[C@H]31)[C@@H]24)[C@@H]1[C@H](O5)[C@@H](O)[C@@]2(CC)CC(C(=O)OC)=C3Nc4cc(O)ccc4[C@@]34CCN1[C@@H]24
Reply | category 1

Ask | Classify this compound: O=C(CSc1nnc(-c2ccc(-c3nc4ccc(Cl)cc4[nH]3)cc2)o1)Nc1ccc(Br)cc1
Reply | category 1

Ask | Classify this compound: Cc1cn(-c2cc(NC(=O)c3ccc(C)c(-n4cc(-c5cnc6cccnn56)nn4)c3)cc(C(F)(F)F)c2)cn1
Reply | category 3

Ask | Classify this compound: C[C@@H]1CN(c2ccc3ncc(C#Cc4cncc(C(=O)Nc5ccc(CN6CCN(C)CC6)c(C(F)(F)F)c5)c4)n3n2)C[C@@H](C)O1
Reply | category 1

Ask | Classify this compound: Cn1cc(-c2cc3nc(-c4cn(C)c5ncccc45)cc(N)n3n2)c2cc(F)ccc21
Reply | category 1
